tested on: Phakopsora pachyrhizi; assay: Soya bean rust control test/spray application; format: in vivo, Phakopsora pachyrhizi on soya beans (cultivar: Enrei); details: active compound application rate 100 ppm; sprayed one day before inoculation; evaluated 14 days after inoculation

{"columns": ["COMPOUND", "TARGET DESC", "Efficacy in %, %"],
 "data": [
  ["Cn1cc(C(=O)Nc2ccccc2-c2ccc(Cl)cc2)c(I)n1", "Phakopsora pachyrhizi", 50],
  ["Cc1nn(C)c(F)c1C(=O)Nc1ccccc1C(C)CC(C)C (stereo not shown)", "Phakopsora pachyrhizi", 100],
  ["Cn1cc(C(=O)Nc2ccccc2CCC(C)(C)C)c(C(F)F)n1", "Phakopsora pachyrhizi", 100],
  ["CC(C)CC(C)c1ccccc1NC(=O)c1c(C(F)(F)F)nn(C)c1F (stereo not shown)", "Phakopsora pachyrhizi", 80],
  ["Cc1nn(C)c(F)c1C(=O)Nc1ccccc1CCC(C)(C)C", "Phakopsora pachyrhizi", 100],
  ["Cn1cc(C(=O)Nc2ccc(F)cc2-c2ccc(Cl)c(Cl)c2)c(C(F)F)n1", "Phakopsora pachyrhizi", 50],
  ["Cc1nc(C(F)F)c(C(=O)Nc2ccsc2CC[Si](C)(C)C)s1", "Phakopsora pachyrhizi", 80]
]}

Data origin: patent US20130190375A1
